molecular target: RecQ helicase (Escherichia coli, UniProt P15043 1-609); assay: EMSA
Sequence (P15043 whole entry): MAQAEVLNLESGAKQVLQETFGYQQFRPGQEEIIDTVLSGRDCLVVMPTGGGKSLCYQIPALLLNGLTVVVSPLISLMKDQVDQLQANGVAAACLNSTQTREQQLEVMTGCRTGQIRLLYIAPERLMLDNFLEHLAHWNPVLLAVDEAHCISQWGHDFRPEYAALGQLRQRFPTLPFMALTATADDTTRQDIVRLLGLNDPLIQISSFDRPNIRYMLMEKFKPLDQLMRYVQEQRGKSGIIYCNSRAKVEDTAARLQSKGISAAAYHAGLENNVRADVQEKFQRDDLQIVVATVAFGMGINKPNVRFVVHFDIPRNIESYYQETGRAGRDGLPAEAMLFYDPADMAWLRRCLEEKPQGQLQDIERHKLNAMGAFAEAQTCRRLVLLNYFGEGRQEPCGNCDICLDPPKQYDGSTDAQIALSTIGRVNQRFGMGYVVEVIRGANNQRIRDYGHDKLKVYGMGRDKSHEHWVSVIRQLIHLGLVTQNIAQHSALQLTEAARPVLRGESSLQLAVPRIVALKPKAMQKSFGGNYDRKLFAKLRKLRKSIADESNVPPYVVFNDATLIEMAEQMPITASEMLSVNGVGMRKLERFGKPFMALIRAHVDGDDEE
This section presents binders with their documented Kd values.
Output spec: scalar in nM, unitless text.

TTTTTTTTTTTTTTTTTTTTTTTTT (ssDNA) [dT25]    1000

Record dT52 (ssDNA) DNA: TTTTTTTTTTTTTTTTTTTTTTTTTTTTTTTTTTTTTTTTTTTTTTTTTTTT . Reported Kd: 170

meta.source: paper PMC3330151
